Reference source for all entries: patent US8288375B2

Listed below: Test F disease control rating values for each entry.
Tested on: Colletotrichum orbiculare
Experiment: Test F: cucumber Colletotrichum anthracnose, test suspension sprayed on cucumber seedlings, disease rating
Type: in vivo
Conditions: 200 ppm test suspension
Value expressed in %; do not type the unit.

// solved cases for Test F disease control rating follow
| Compound | Readout units | Test F disease control rating |
| --- | --- | --- |
| CCC(C)c1ccc(Nc2nccc(-c3c(-c4ccc(F)cc4)nn4c3CCCC4)n2)cc1 (centres unmarked) [compound 9] | % | 79 |
| C=CCN1CNCc2c(-c3ccnc(NC4CC4)n3)c(-c3ccc(F)cc3)nn21 [Compound 137] | % | 0 |
| CCC(C)CNc1nccc(-c2c(-c3ccc(F)cc3)nn3c2CCCC3)n1 (centres unmarked) [compound 6] | % | 0 |
| CC(C)(C)CNc1nccc(-c2c(-c3ccc(F)cc3)nn3c2CCCC3)n1 [compound 3] | % | 0 |
| Fc1ccc(-c2nn3c(c2-c2ccnc(NCC4CCOCC4)n2)CCCC3)cc1 [compound 80] | % | 0 |
| C#CCNc1nccc(-c2c(-c3ccc(F)cc3)nn3c2CCCC3)n1 [compound 17] | % | 77 |

Input line: Please report Test F disease control rating for the following compound: CC(CN1C(=O)c2ccccc2C1=O)Nc1nccc(-c2c(-c3ccc(F)cc3)nn3c2CCCC3)n1 (centres unmarked) [compound 71]
Output line: 0

Input line: Supply recorded Test F disease control rating for COCC(C)Nc1nccc(-c2c(-c3ccc(OC)cc3)nn3c2CCC3)n1 (centres unmarked) [compound 86] here.
Output line: 0
